tested on: E18 rat cortical neuron-glia co-culture; assay: fiber score / MBP score (myelination specific beyond OL differentiation) (ratio); higher = more myelination-specific MBP alignment; conditions: 1 µM; treatment time: 8 days (DIV5-DIV13);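 further: MBP fiber length per Olig2+ nucleus over MBP area × intensity per Olig2+ nucleus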
Tick True if fiber score / MBP score is 0.8 or greater. Tick False if fiber score / MBP score is less than 0.8.

Example results:
[[record]]
compound = "COc1cc(CNC(=O)CCCC/C=C\\C(C)C)ccc1O [Zucapsaicin]"
label_class = "True"

[[record]]
compound = "Cc1ccccc1C(OCCN(C)C)c1ccccc1 (stereo not given) [Orphenadrine]"
label_class = "False"

[[record]]
compound = "C/C(=C\\C(=O)OCCCCCCCCC(=O)O)C[C@@H]1OC[C@H](C[C@@H]2O[C@H]2[C@@H](C)[C@H](C)O)[C@@H](O)[C@H]1O [Mupirocin]"
label_class = "False"

[[record]]
compound = "C[C@@H](O)[C@H]1C(=O)N2C(C(=O)O)=C(S[C@@H]3CN[C@H](C(=O)N(C)C)C3)[C@H](C)[C@H]12 [Meropenem]"
label_class = "True"

[[record]]
compound = "CCCC(=O)Nc1ccc(OCC(O)CNC(C)C)c(C(C)=O)c1 (stereo not given) [Acebutolol]"
label_class = "False"

[[record]]
compound = "CCOC(=O)N1CCC(=C2c3ccc(Cl)cc3CCc3cccnc32)CC1 [Loratadine]"
label_class = "True"

[[record]]
compound = "O=C1[C@H]2CCCC[C@H]2C(=O)N1CCCCN1CCN(c2nsc3ccccc23)CC1 [Perospirone]"
label_class = "False"

[[record]]
compound = "CCOC(=O)C1=C(C)NC(C)=C(C(=O)OC)C1c1cccc([N+](=O)[O-])c1 (stereo not given) [Nitrendipine]"
label_class = "True"

[[record]]
compound = "CO[C@H]1/C=C/O[C@@]2(C)Oc3c(C)c(O)c4c(O)c(c(/C=N/N5CCN(C)CC5)c(O)c4c3C2=O)NC(=O)/C(C)=C\\C=C\\[C@H](C)[C@H](O)[C@@H](C)[C@@H](O)[C@@H](C)[C@H](OC(C)=O)[C@@H]1C [Rifampicin]"
label_class = "True"


Now turn to the next compound.
Task: Please tell me: is the compound O=C(O)COCCN1CCN(C(c2ccccc2)c2ccc(Cl)cc2)CC1 (stereo not given) [Virlix] at or over 0.8 in terms of fiber score / MBP score?
Result: True

Reference source: the supplement of paper PMC4840960
